# experimental_target: Bcr/Abl fusion protein (Homo sapiens) (UniProt P00519+P11274)
# Sequence (P11274 whole entry, looked up, one chain of several, the tested form may be a part): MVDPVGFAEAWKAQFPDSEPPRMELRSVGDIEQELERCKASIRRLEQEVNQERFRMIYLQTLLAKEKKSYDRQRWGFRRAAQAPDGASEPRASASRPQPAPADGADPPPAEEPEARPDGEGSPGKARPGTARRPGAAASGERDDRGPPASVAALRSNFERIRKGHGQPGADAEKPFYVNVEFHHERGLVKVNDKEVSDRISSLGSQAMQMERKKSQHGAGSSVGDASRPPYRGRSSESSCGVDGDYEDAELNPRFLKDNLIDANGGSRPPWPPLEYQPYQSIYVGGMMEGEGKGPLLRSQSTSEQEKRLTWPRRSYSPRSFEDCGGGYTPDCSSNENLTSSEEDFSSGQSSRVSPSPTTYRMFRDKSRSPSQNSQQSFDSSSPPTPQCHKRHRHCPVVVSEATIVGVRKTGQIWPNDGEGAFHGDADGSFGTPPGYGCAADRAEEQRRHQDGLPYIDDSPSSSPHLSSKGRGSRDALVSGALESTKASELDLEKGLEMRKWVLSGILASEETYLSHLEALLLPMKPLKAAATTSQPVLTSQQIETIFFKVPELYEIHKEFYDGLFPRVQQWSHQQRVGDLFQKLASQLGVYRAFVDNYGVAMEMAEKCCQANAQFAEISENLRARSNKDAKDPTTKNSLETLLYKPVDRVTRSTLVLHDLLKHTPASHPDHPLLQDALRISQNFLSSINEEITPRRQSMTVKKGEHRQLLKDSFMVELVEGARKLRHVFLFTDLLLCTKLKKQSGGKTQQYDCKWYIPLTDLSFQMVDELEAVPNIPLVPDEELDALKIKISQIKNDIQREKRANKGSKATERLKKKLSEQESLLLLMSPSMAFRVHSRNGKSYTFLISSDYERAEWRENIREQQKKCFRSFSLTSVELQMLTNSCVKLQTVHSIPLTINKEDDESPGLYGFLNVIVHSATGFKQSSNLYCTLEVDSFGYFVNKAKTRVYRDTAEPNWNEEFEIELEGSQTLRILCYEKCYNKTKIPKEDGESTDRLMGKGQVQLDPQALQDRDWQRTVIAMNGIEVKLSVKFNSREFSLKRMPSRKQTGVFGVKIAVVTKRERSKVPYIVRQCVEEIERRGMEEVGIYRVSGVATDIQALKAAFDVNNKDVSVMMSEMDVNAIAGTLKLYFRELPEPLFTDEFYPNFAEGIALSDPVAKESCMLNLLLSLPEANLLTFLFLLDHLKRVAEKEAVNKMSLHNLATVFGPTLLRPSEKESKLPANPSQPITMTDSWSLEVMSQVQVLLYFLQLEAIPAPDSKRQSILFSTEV
# condition_label: BaF3
# Description: Inhibition of BCR/ABL p210 (unknown origin) expressed in mouse BA/F3 cells assessed as growth inhibition after 72 hrs by CellTiter-Glo or CCK-8 assay
endpoint_name: GI50 (nM)
Provide the reading as a plain figure in nM.

[
  {
    "compound_structure_string": "Cc1ccc(Nc2ncc3c(n2)N(C)C(=O)N(c2cc(NC(=O)c4cccc(C(F)(F)F)c4)ccc2C)C3)cc1N",
    "measurement_units": "nM",
    "GI50": 5
  },
  {
    "compound_structure_string": "CNc1nc(Nc2ccc(C)c(N)c2)ncc1C(=O)Nc1cc(NC(=O)c2cccc(OC)c2)ccc1C",
    "measurement_units": "nM",
    "GI50": 570
  }
]

// query Input Cc1ccc(Nc2ncc(C(=O)Nc3cc(NC(=O)c4cccc(C(F)(F)F)c4)ccc3C)c(N(C)C)n2)cc1N , output reported GI50.
// result 1850

###

# assay_summary: Tmax in Sprague-Dawley rat at 10 mg/kg, po
# Type: ADME, organism-based
# condition_label: in vivo
endpoint_name: Tmax (h)
Provide the reading as a plain figure in h.

// query Input CNc1nc(Nc2ccc(C)c(N)c2)ncc1C(=O)Nc1cc(NC(=O)c2cccc(C(F)(F)F)c2)ccc1C , output reported Tmax.
// result 1

###

# experimental_target: Discoidin domain-containing receptor 2 (Homo sapiens, UniProt Q16832)
# Sequence (Q16832 whole entry, the tested form may be a part): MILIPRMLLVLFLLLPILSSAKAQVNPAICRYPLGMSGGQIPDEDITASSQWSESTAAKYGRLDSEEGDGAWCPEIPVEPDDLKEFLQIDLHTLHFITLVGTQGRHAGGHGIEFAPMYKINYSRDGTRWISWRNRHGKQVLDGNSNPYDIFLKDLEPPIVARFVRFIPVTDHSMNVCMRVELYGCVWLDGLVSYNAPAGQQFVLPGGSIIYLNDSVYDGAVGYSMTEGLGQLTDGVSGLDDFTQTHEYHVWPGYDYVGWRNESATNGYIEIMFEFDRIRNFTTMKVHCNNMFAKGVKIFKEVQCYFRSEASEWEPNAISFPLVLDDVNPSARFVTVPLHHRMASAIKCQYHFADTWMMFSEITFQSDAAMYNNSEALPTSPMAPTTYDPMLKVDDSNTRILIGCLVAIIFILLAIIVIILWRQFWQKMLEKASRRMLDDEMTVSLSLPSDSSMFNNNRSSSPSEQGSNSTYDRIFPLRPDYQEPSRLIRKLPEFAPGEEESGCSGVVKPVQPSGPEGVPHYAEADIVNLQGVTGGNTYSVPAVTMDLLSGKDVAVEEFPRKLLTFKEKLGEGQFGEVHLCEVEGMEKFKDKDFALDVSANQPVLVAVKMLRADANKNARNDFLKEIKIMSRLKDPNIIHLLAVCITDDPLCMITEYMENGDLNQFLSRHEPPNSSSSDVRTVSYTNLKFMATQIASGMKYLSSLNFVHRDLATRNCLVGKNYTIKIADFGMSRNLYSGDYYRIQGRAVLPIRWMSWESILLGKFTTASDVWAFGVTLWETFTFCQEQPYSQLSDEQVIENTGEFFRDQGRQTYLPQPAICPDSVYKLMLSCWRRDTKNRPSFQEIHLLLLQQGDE
# assay_summary: Inhibition of recombinant human GST-tagged DDR2 expressed in Baculovirus expression system
endpoint_name: pIC50
When answering, recall that pIC50 equals minus log10 of the concentration in mol/L, and write that number alone.

// query Provide pIC50, recorded with Discoidin domain-containing receptor 2 (Homo sapiens, UniProt Q16832), of CNc1nc(Nc2ccc(C)c(N)c2)ncc1C(=O)Nc1cc(NC(=O)c2cccc(C(F)(F)F)c2)ccc1C
// result 6.34

###

# experimental_target: Transcription factor ETV6/Tyrosine-protein kinase ABL1 (Homo sapiens) (UniProt P00519+P41212)
# Sequence (P00519 whole entry, looked up): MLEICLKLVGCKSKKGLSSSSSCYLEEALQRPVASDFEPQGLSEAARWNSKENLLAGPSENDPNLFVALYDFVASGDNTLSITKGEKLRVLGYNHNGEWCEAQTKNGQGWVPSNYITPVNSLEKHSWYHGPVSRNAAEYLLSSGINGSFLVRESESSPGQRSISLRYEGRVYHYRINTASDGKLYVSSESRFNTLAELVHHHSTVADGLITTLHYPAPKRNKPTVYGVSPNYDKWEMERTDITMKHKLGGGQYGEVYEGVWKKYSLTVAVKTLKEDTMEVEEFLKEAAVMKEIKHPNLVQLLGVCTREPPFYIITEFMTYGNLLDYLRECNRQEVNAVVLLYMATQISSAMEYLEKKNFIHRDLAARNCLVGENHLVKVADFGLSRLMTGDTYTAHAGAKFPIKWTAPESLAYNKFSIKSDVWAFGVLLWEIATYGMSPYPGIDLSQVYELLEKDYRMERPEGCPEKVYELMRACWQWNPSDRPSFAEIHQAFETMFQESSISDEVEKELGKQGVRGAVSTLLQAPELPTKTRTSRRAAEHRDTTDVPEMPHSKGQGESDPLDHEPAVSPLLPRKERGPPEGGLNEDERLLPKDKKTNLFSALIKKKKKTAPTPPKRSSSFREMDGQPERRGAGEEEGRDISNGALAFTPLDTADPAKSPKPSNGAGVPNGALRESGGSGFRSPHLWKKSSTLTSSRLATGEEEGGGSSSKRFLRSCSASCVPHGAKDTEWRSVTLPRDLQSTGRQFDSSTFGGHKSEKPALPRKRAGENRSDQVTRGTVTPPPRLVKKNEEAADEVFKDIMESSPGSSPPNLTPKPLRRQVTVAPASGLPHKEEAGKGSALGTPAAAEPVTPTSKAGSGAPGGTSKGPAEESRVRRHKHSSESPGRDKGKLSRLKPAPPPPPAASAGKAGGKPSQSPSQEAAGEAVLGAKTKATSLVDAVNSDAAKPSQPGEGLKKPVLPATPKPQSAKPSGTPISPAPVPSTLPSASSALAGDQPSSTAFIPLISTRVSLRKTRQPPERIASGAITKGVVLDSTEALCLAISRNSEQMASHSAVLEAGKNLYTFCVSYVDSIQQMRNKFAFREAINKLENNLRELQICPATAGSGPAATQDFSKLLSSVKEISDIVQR
# Sequence (P41212 whole entry, looked up): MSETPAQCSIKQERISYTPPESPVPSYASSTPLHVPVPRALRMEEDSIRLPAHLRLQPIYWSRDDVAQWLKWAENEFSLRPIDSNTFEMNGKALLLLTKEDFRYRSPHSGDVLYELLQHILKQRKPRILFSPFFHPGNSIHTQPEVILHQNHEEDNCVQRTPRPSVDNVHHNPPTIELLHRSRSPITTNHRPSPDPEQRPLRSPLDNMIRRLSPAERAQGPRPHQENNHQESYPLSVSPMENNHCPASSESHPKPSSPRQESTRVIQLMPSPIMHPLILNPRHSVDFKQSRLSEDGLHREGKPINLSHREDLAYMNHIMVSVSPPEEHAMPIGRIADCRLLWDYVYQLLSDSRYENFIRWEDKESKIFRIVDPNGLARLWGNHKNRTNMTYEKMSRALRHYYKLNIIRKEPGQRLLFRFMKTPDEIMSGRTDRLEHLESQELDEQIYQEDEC
# condition_label: BaF3
# Description: Inhibition of Tel-ABL (unknown origin) expressed in mouse BA/F3 cells assessed as cell growth inhibition after 72 hrs by CellTiter-Glo or CCK-8 assay
endpoint_name: log10 of GI50 (log10 of the value in nM)
Lab note - GI50 converted to log10 from values in nM.

[
  {
    "compound_structure_string": "CNc1cc(Nc2ncc3c(n2)N(C)C(=O)N(c2cc(NC(=O)c4cccc(C(F)(F)F)c4)ccc2C)C3)ccc1C",
    "log10 of GI50": 1.30
  },
  {
    "compound_structure_string": "CNc1nc(Nc2ccc(C)c(N)c2)ncc1C(=O)Nc1cc(NC(=O)c2cc(OC)cc(OC)c2)ccc1C",
    "log10 of GI50": 2.80
  },
  {
    "compound_structure_string": "CNc1nc(Nc2ccc(C)c([N+](=O)[O-])c2)ncc1C(=O)Nc1cc(NC(=O)c2cccc(OC)c2)ccc1C",
    "log10 of GI50": 2.99
  }
]

// query Input CNc1nc(Nc2ccc(C)c([N+](=O)[O-])c2)ncc1C(=O)Nc1cc(NC(=O)c2ccc3c(c2)OCCO3)ccc1C , output reported log10 of GI50.
// result 3.63

// query Input Cc1ccc(Nc2ncc3c(n2)N(C)C(=O)N(c2cc(NC(=O)c4cc(C(C)(C)C)cc(C(C)(C)C)c4)ccc2C)C3)cc1N , output reported log10 of GI50.
// result 1.98

// query Input CNc1nc(Nc2ccc(C)c(N)c2)ncc1C(=O)Nc1cc(NC(=O)c2cc(OC)c(OC)c(OC)c2)ccc1C , output reported log10 of GI50.
// result 2.65

// query Input CNc1nc(Nc2ccc(C)c(N)c2)ncc1C(=O)Nc1cc(NC(=O)c2ccc3c(c2)OCO3)ccc1C , output reported log10 of GI50.
// result 2.76

// query Input CNc1nc(Nc2ccc(C)c([N+](=O)[O-])c2)ncc1C(=O)Nc1cc(NC(=O)c2ccc(OC)c(OC)c2)ccc1C , output reported log10 of GI50.
// result 3.15
